Recorded values, source patent US10316017B2.

molecular target: human Cot catalytic domain (30-397 amino acids) (Homo sapiens); construct: Purified recombinant human Cot catalytic domain (30-397 amino acids) was purchased from Cama Biosciences; purchased Cama Biosciences (so in the source); test: High Throughput Cot Biochemical Assay (KinEASE TR-FRET); conditions: Cot KinEASE TR-FRET (HTRF) biochemical assay, 400 μM ATP; read-out: IC50 HTRF
Sequence (P41279 30-397): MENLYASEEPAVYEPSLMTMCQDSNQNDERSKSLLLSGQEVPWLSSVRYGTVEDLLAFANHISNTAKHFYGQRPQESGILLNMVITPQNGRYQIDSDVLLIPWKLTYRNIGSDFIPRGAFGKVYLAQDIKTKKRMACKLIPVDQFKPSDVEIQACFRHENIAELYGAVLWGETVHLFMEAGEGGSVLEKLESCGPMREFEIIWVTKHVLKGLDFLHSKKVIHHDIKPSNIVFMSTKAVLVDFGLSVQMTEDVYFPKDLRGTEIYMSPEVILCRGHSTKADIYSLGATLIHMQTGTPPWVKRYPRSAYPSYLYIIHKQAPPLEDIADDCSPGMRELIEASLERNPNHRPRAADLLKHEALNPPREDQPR
pIC50: −log10 of the molar value.
PROPERTY: pIC50

Please review the following examples before continuing.
| COMPOUND | RECORDED_NUMBER |
| --- | --- |
| [2H][C@](Nc1cc(Cl)c2ncc(C#N)c(N[C@H](COC)c3ccccc3)c2c1)(c1ccc(F)cc1)c1cn(C2CC2)nn1 [Example 181] | 7.55 |
| [2H][C@](Nc1cc(O)c2ncc(C#N)c(NCC(C)(C)C)c2c1)(c1ccc(F)cc1)c1cn(C2CC2)nn1 [Compound 43] | 5.71 |
| [2H][C@](Nc1cc(C(=O)N(C)C)c2ncc(C#N)c(NCC(C)(C)C)c2c1)(c1ccc(F)cc1)c1cn(C2CC2)nn1 [Example 138] | 6.86 |
| [2H][C@](Nc1cc(Cl)c2ncc(C#N)c(Nc3ccccc3OC)c2c1)(c1ccc(F)cc1)c1cn(C2CC2)nn1 [Example 160] | 6.30 |

a = N#CCC[C@@H](Nc1c(C#N)cnc2c(Cl)cc(N[C@H](c3cn(C(F)(F)CO)nn3)c3ccccc3Cl)cc12)c1ccccc1 [Example 67]
b = [2H][C@](Nc1cc(C#N)c2ncc(C#N)c(Nc3cnc(F)c(F)c3)c2c1)(c1ccc(F)cc1)c1cn(C2CC2)nn1 [Example 351]
Request: Compare the recorded pIC50 of a and b ; state which is larger. Kindly give the label for the entry you pick.
Result: a
(a: 8.70, b: 8.22)
